meta.source: patent US20260274910A1

target: ATP5B protein; test: SPR, ATP5B amine-coupled to CM5 chip, peptide in flow at 50 ul/min; binding units relative to SEQ ID NO: 12
Sequence (P06576 48-529): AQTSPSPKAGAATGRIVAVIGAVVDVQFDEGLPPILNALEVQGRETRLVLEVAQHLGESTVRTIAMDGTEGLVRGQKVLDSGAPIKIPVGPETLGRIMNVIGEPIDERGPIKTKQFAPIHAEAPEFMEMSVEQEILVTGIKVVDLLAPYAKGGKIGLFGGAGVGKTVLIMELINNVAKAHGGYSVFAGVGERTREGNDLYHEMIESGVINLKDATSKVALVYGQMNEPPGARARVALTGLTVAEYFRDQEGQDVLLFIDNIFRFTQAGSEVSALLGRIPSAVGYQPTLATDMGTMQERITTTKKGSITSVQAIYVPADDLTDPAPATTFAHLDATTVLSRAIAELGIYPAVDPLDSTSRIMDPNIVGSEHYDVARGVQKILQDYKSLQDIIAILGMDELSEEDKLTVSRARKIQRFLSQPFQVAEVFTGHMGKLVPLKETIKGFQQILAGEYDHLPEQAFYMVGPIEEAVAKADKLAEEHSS
Task for the reader: assign each of the following binders its reported Binding (%).

Answer for every listed entry: what is its Binding (%)? The entries follow.
1. ADRGAGSIREAGGAFGKREQAEEERYFR [Shortened substance (8-35) amino acid Ala substituted (8)]
2. VDRGAASIREAGGAFGKREQAEEERYFR [Shortened substance (8-35) amino acid Ala substituted (13)]

Result:
1: 101%; 2: 98.5%

The following binders each have a reported value; give each one's Binding (%).
1. VDRGAGSIREAGGAFGKREAAEEERYFR [Shortened substance (8-35) amino acid Ala substituted (27)]
2. VDRGAGSIRAAGGAFGKREQAEEERYFR [Shortened substance (8-35) amino acid Ala substituted (17)]
3. VDRGAGSIREAGGAFGKREQAEEARYFR [Shortened substance (8-35) amino acid Ala substituted (31)]
4. VDRGAGSIREAGGAFGKREQAEEERYFA [Shortened substance (8-35) amino acid Ala substituted (35)]
5. VDRGAGSIAEAGGAFGKREQAEEERYFR [Shortened substance (8-35) amino acid Ala substituted (16)]
6. VDRGAGSIREAGGAFGKREQAEAERYFR [Shortened substance (8-35) amino acid Ala substituted (30)]
7. VDRGAGSIREAGGAFGKREQAEEERAFR [Shortened substance (8-35) amino acid Ala substituted (33)]
8. VDRAAGSIREAGGAFGKREQAEEERYFR [Shortened substance (8-35) amino acid Ala substituted (11)]

Result:
1. 89.5%
2. 169%
3. 158%
4. 110%
5. 97%
6. 94%
7. 146%
8. 100%

// each listed binder needs a value for Binding (%)
1. VDRGAGSIREAGGAFGKAEQAEEERYFR [Shortened substance (8-35) amino acid Ala substituted (25)]
2. VDRGAGSIREAGGAFGKREQAEEEAYFR [Shortened substance (8-35) amino acid Ala substituted (32)]
3. VDRGAGSIREAGGAFGKREQAAEERYFR [Shortened substance (8-35) amino acid Ala substituted (29)]
4. VDRGAGSAREAGGAFGKREQAEEERYFR [Shortened substance (8-35) amino acid Ala substituted (15)]
5. VDRGAGSIREAGGAFGKRAQAEEERYFR [Shortened substance (8-35) amino acid Ala substituted (26)]
6. VDAGAGSIREAGGAFGKREQAEEERYFR [Shortened substance (8-35) amino acid Ala substituted (10)]
7. VDRGAGSIREAGAAFGKREQAEEERYFR [Shortened substance (8-35) amino acid Ala substituted (20)]
8. VDRGAGSIREAGGAFAKREQAEEERYFR [Shortened substance (8-35) amino acid Ala substituted (23)]

Result:
1. 85.2%
2. 426%
3. 96.7%
4. 99.3%
5. 94.1%
6. 104%
7. 68%
8. 102%
